molecular target: T1, endogenous cell surface human MSLN (human, UniProt Q13421 296-598); assay: flow cytometry, NCI-H226 cells + 20 nM soluble MSLN
T1 construct: whole, on cells; The cell line is named under assay; also called cell-surface MSLN on NCI-H226, OVCAR-3 and AsPC-1 cells
T1 sequence (Q13421 other isoform, or with tags, fused parts or gaps limits assumed): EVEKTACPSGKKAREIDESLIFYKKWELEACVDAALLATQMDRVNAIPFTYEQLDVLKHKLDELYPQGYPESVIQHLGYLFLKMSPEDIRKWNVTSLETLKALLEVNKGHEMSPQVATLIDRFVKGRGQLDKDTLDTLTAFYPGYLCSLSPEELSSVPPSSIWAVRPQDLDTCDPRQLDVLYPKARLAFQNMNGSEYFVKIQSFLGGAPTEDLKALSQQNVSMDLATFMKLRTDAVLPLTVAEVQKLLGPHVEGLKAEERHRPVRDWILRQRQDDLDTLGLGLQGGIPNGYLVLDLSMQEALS
// Emax (MFI) lookup, one value per entry
Include the unit after the number when you answer.

For orientation, consider the following solved cases.
FS22-172-003-AA/FS28-256-018 (bispecific antibody, human IgG1, kappa, L234A L235A, V domains shown, IgG1 mAb^2 with LALA) VH: EVQLLESGGGLVQPGGSLRLSCAASGFTFTQTYMSWVRQAPGKGLEWVSNISPTYSTTNYADSVKGRFTISRDNSKNTLYLQMNSLRAEDTAVYYCARYNAYQIGLDYWGQGTLVTVSS VL: EIVLTQSPGTLSLSPGERATLSCRASQSVSSSYLAWYQQKPGQAPRLLIYGASSRATGIPDRFSGSGSGTDFTLTISRLEPEDFAVYYCQQSYYYPITFGQGTKVEIKR; 357000 MFI
FS22-172-003-AA/FS28-024 (bispecific antibody, human IgG1, kappa, L234A L235A, V domains shown, IgG1 mAb^2 with LALA; also called FS28-024 in CD137 mAb^2 format) VH: EVQLLESGGGLVQPGGSLRLSCAASGFTLSYSSMSWVRQAPGKGLEWVSFITPSTGYTHYADSVKGRFTISRDNSKNTLYLQMNSLRAEDTAVYYCARRALTFDYWGQGTLVTVSS VL: EIVLTQSPGTLSLSPGERATLSCRASQSVSSSYLAWYQQKPGQAPRLLIYGASSRATGIPDRFSGSGSGTDFTLTISRLEPEDFAVYYCQQASSYPLTFGQGTKVEIKR; 792000 MFI
FS22-172-003-AA/FS28-256-023 (bispecific antibody, human IgG1, kappa, L234A L235A, V domains shown, IgG1 mAb^2 with LALA) VH: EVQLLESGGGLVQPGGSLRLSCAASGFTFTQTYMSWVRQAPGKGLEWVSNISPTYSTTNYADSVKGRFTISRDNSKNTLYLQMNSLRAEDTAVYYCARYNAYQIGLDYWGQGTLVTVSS VL: EIVLTQSPGTLSLSPGERATLSCRASQSVSSSYLAWYQQKPGQAPRLLIYGASSRATGIPDRFSGSGSGTDFTLTISRLEPEDFAVYYCQQHNQYPNTFGQGTKVEIKR; 625000 MFI

Lookup result for FS22-172-003-AA/FS28-024-053 (bispecific antibody, human IgG1, kappa, L234A L235A, V domains shown, IgG1 mAb^2 with LALA) VH: EVQLLESGGGLVQPGGSLRLSCAASGFTLSYSSMSWVRQAPGKGLEWVSFITPSTGYTHYADSVKGRFTISRDNSKNTLYLQMNSLRAEDTAVYYCARRALVFDYWGQGTLVTVSS VL: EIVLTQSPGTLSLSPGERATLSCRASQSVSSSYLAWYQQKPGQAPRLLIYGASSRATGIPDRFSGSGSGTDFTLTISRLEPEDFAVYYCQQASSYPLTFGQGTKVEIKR ; measured Emax (MFI): 788000 MFI

// provenance: patent US12319739
